Inhibition values, listed per item
System: Plasmodium falciparum
Experiment: GSK_TCMDC: Inhibition of Plasmodium falciparum Dd2 in whole red blood cells, using parasite LDH activity as an index of growth. Test compounds present at 2uM
Type: functional
State the answer as a number, implicitly in %.

Structure smiles	Measurement unit	Inhibition
CCOc1c(Cl)cc(Cl)cc1CNCCCNc1nc2ccccc2[nH]1.Cl	%	1
Cc1cccc(OCC2CCN(c3ncc(C(=O)NC4CC4)cc3Cl)CC2)c1	%	78
Cc1cc(NCCC(=O)NCc2cccc(F)c2)nc(Nc2ccccc2)n1.O=C(O)C(F)(F)F	%	15
O=C(/C=C/c1ccc(Cl)c(Cl)c1)NCCCCCN1CCC(NC(=O)Nc2cc(Cl)nc(Cl)c2)CC1	%	2
Fc1ccc2[nH]c(-c3cccc(-c4ccc(CN5CCN(CCN6CCOCC6)CC5)cc4)c3)nc2c1.O=C(O)C(F)(F)F	%	100
Cc1ccccc1Nc1nc(Nc2ccccc2)c2ccccc2n1.Cl	%	21

// next item, Inhibition requested
Inhibition for Cc1ccc(C(=O)c2oc3ccc4c(C)cc(=O)oc4c3c2C)cc1 ?
48

###

Tested on: HepG2
Experiment: GSK_TCMDC: Percent inhibition of human HepG2 cell line. Test compounds present at 10uM.
Format: functional
Endpoint label: Inhibition (%)
State the answer as a number, implicitly in %.

Below are worked cases with known answers.
Structure smiles	Inhibition [%]
N=C(N)NCCCCN(Cc1ccccc1)c1ccccc1	0
O=C(Nc1cccc(-c2ccc(-c3nc4cc(C(F)(F)F)ccc4[nH]3)s2)c1)c1cccnc1	74
COc1ccc(NC(=O)Nc2cc(C)nc3cccnc23)cc1Cn1ccnc1	12
O=C(NCc1ccc(Cl)c(Cl)c1)c1ccc(-c2nc3cc(F)c(F)cc3[nH]2)cc1	0
COc1cc2ncnc(Nc3ccc(OCc4ccccc4)c(I)c3)c2cc1OC.Cl	11

// next item, Inhibition requested
Inhibition for CCOC(=O)c1[nH]c2ccc(F)cc2c1NC(=O)CN1CCN(c2cccc(C(F)(F)F)c2)CC1 ?
12

###

Test system: HepG2
Experiment: GSK_TCMDC: Percent inhibition of human HepG2 cell line. Test compounds present at 10uM.
Assay type: functional
Endpoint label: Inhibition
Quick note: number first, unit second.

Below are worked cases with known answers.
Compound	Inhibition
O=C(N[C@@H](Cc1ccccc1)[C@H](O)CNCCC(F)(F)F)c1cccc(CCC2CC2)c1	0%
C#CC[C@@H](NC(N)=O)C(=O)O	1%
CC1(C)CN2CCCC2c2cc(NC(=O)/C=C/c3ccccc3Cl)ccc21.Cl (configuration not stated)	20%
O=C(NC1CCN(Cc2ccccc2)CC1)c1ccc(-c2nc3cc(Cl)c(Cl)cc3[nH]2)s1	17%

Inhibition for O=C(NC1CCN(c2ccnc3cc(Cl)ccc23)C1)c1ccccc1F.O=C(O)C(F)(F)F (configuration not stated) ?
8%

Inhibition for CN(C)CCNCc1cccc(-c2ccc3c(Nc4ccc(Oc5ccccc5)cc4)ccnc3c2)c1 ?
31%

Inhibition for Cc1cccc(Nc2nccc(NCC(O)c3cccc(C(F)(F)F)c3)n2)c1 (configuration not stated) ?
25%

###

Tested on: Plasmodium falciparum
Experiment: GSK_TCMDC: Inhibition of Plasmodium falciparum Dd2 in whole red blood cells, using parasite LDH activity as an index of growth. Test compounds present at 2uM
Format: functional
# label = met if Inhibition < 70% else not met

Is it true that Inhibition reported for Cl.c1ccc(Oc2ccc(Nc3ccnc4c(-c5ccccn5)cccc34)cc2)cc1 is less than 70%?
met

Is it true that Inhibition reported for O=C(Nc1ccsc1C(=O)NC1CCCCC1)c1ccc(F)cc1 is less than 70%?
met

Is it true that Inhibition reported for O=C(c1ccc(-c2ccccn2)s1)N1CCc2cc3nccc(N4CCN5CCC[C@H]5C4)c3cc21 is less than 70%?
met

Is it true that Inhibition reported for Cc1ccc(Nc2nc3cc(Nc4ccnc(Nc5ccc(CS(C)(=O)=O)cc5)n4)ccc3o2)cc1 is less than 70%?
met

Is it true that Inhibition reported for COc1ccc2nccc([C@@H](O)CN3CCC(NC(=O)c4ccc5cc[nH]c5c4)CC3)c2c1.CS(=O)(=O)O is less than 70%?
met

Is it true that Inhibition reported for Cc1[nH]c(C)c(-c2ccc(Oc3ccccc3)cc2)c(=O)c1Br is less than 70%?
not met

###

Tested on: Plasmodium falciparum
Experiment: GSK_TCMDC: Inhibition of Plasmodium falciparum 3D7 in whole red blood cells, using parasite LDH activity as an index of growth. Test compounds present at 2uM
Assay type: functional
Endpoint label: Inhibition
Quick note: number first, unit second.

Structure smiles	Inhibition
COc1cc2nc(NCCCN3CCCCC3)nc(NCc3ccccc3)c2cc1OC	100%
CCOC(=O)N1CCN(CCCNc2c3ccc(Cl)cc3nc3ccc(OC)cc23)CC1	100%

Inhibition for COc1ccc(C)cc1NC(=O)CSc1nc2cccnc2n1C1CCCCC1 ?
89%

Inhibition for O=C(N[C@H]1CCN(Cc2ccc(OCCCN3CCCCC3)cc2)C1)c1cc(Cl)cc(Cl)c1 ?
99%

Inhibition for CN1CCC(NCc2ccc(-c3ccc(S(=O)(=O)NCc4ccccc4)cc3)cc2)CC1.O=C(O)C(F)(F)F ?
99%

Inhibition for COc1ccc(NC(=O)/C=C/c2ccc(-c3ccccc3)cc2)cc1N1CCN(C)CC1.O=C(O)C(=O)O ?
90%

Inhibition for Cn1cncc1CNCc1ccc(-c2cccc(-c3nc4ccccc4[nH]3)c2)cc1.O=C(O)C(F)(F)F ?
100%

Inhibition for COCCNCc1nc(-c2ccc3c(Nc4ccc(Cl)cc4F)ccnc3c2)cs1 ?
100%

Inhibition for Clc1ccc(OCc2ccccc2)c(-c2nc(-c3nc4ccc(Cl)cc4[nH]3)cs2)c1 ?
99%

Inhibition for Cc1cc(O)c(CN(C)Cc2ccc3c(c2)OCCO3)cc1C(C)C ?
98%

Inhibition for COc1ccc(Nc2nc(N/N=C/c3cc(Br)ccc3O)nc(Nc3ccc([N+](=O)[O-])cc3)n2)cc1 ?
97%

###

System: HepG2
Assay: GSK_TCMDC: Percent inhibition of human HepG2 cell line. Test compounds present at 10uM.
Format: functional
Inhibition values, listed per item
Quick note: number first, unit second.

Below are worked cases with known answers.
Compound	Result
N#Cc1ccc(N(CCOC(=O)c2ccc(Br)s2)Cc2ccccc2C(F)(F)F)cc1C(F)(F)F	8%
COc1ccc(Cn2c(N3CCN(S(=O)(=O)c4ccc(OC)cc4)CC3)nc3c2c(=O)n(CC2CC2)c(=O)n3CC2CC2)cc1	0%
CCC(COCc1ccc(Cl)cc1)N(C)CCN(C)C(CC)COCc1ccc(Cl)cc1.Cl (stereo not given)	89%
Cc1cnc(CNCc2ccc(S(=O)(=O)Nc3ccc(Oc4cccc(Cl)c4)cc3)cc2)cn1.O=C(O)C(F)(F)F	4%
CC(=O)c1c(Cc2ccccc2Cl)c[nH]c1C	0%

Hello, I am looking for reported Inhibition with HepG2 for CCCNC(=O)c1cncc(-c2cccc(CNC3Cc4ccccc4C3)c2)c1.O=C(O)C(F)(F)F . Could you help?
0%

Hello, I am looking for reported Inhibition with HepG2 for COc1ccc(Nc2nc(NC3CCN(C)CC3)cc(-c3ccc(OC)cc3)n2)cc1 . Could you help?
62%

Hello, I am looking for reported Inhibition with HepG2 for C=CCc1cc(Br)ccc1OCCCOc1c(C)nc(N)nc1N.Cl . Could you help?
56%

Hello, I am looking for reported Inhibition with HepG2 for CN(C)C(=O)c1ccc(CN(Cc2cccc(OC(C)(C)C)c2)Cc2ccc3c(c2)OCCO3)cc1 . Could you help?
0%

###

Tested on: Plasmodium falciparum
Test: GSK_TCMDC: Inhibition of Plasmodium falciparum 3D7 in whole red blood cells, using parasite LDH activity as an index of growth. Test compounds present at 2uM
Type: functional
Endpoint label: Inhibition (%)
State the answer as a number, implicitly in %.

Below are worked cases with known answers.
Compound	Target of assay	Inhibition, %
CC1(C)N=C(N)N=C(N)N1OCc1cc2ccccc2cc1CON1C(N)=NC(N)=NC1(C)C	Plasmodium falciparum	92
COc1ccc(-c2cnc3[nH]cc(-c4ccc(C(=O)O)c(C)c4)c3c2)cn1.O=C(O)C(F)(F)F	Plasmodium falciparum	99
COc1ccc(N2C(=O)C3C(C2=O)C2(C)c4ccccc4C3(C)c3ccccc32)c([N+](=O)[O-])c1 (centres undefined)	Plasmodium falciparum	99

// next item, Inhibition requested
Inhibition for CC=CC(=O)N1CCN(c2nccc(-c3ccc(C(C)(C)C)cc3)n2)CC1 ?
95

###

Test system: Plasmodium falciparum
Assay: GSK_TCMDC: Inhibition of Plasmodium falciparum Dd2 in whole red blood cells, using parasite LDH activity as an index of growth. Test compounds present at 2uM
Format: functional
Endpoint label: Inhibition (%)
State the answer as a number, implicitly in %.

Below are worked cases with known answers.
Structure smiles	Target of assay	Measurement unit	Result number
O=C(Nc1cccc(Oc2ccccc2)c1)N[C@H]1CCN(Cc2ccc(OCCCN3CCCCC3)cc2)C1	Plasmodium falciparum	%	70
C[C@H](NC(=O)c1c(CN2CCC(N3CCCCC3)CC2)c(-c2ccccc2)nc2cc(O)ccc12)C1CCCCC1	Plasmodium falciparum	%	72

Inhibition for CN1CCN=C1c1ccc(NC(=O)Nc2ccc(C3=NCCN3C)cc2)cc1.Cl ?
69

Inhibition for CCNc1cc(C)nc(Nc2ccc(NC(=O)C3CCCC3)cc2)n1 ?
69
